Overview of reported ENDOHDL Test 2 across a group of molecules:
# target or system: murine SR-BI (Mus musculus)
# Construct: expressed in transfected cells; host or cells: ldlA-7 (LDL receptor deficient Chinese hamster ovary cells)
# experiment: Uptake of DiI from DiI-HDL by ldlA[mSR-BI] cells (high throughput screen and concentration dependence)
# Assay type: cell-based
# measurement parameters: Test 2; DiI uptake from DiI-HDL, compounds at nominal 10 micromolar, ldlA[mSR-BI] cells
Write no unit; give the number alone.

The value of ENDOHDL Test 2 measured for the molecule COc1ccc2c(c1)c(C(C)=O)c(C)n2-c1ccccc1 [MIT 9952-335] turned out to be 0.49

The value of ENDOHDL Test 2 measured for the molecule O=C(NC(NC(=S)Nc1cccc([N+](=O)[O-])c1)C(Cl)(Cl)Cl)C(c1ccccc1)c1ccccc1 (stereo not drawn) [MIT 9952-327] turned out to be 0.45

###

# target or system: murine SR-BI (Mus musculus)
# Construct: expressed in transfected cells; host or cells: ldlA-7 (LDL receptor deficient Chinese hamster ovary cells)
# experiment: Uptake of DiI from DiI-HDL by ldlA[mSR-BI] cells (high throughput screen and concentration dependence)
# Format: cell-based
# measurement parameters: Test 1
readout name: ENDOHDL Test 1
Write no unit; give the number alone.

>  <compound>
O=C(Nc1ccc(C2Nc3ccc(SC(=O)c4ccc(Cl)cc4)c(Cl)c3S2)cc1)c1ccc(Cl)cc1 (stereo not drawn)

>  <ENDOHDL Test 1>
0.56

$$$$
>  <compound>
Cc1ccc(C(C)C)cc1OCC(=O)N/N=C\c1cc([N+](=O)[O-])ccc1O

>  <ENDOHDL Test 1>
0.47

$$$$

murine SR-BI (Mus musculus) assay, compound C/C(CS(=O)(=O)c1ccccc1)=N/NC(N)=S , recorded ENDOHDL Test 1 = 0.59

murine SR-BI (Mus musculus) assay, compound Clc1ccc(/N=C/c2ccc3c(c2)OCO3)nc1 , recorded ENDOHDL Test 1 = 1.36

murine SR-BI (Mus musculus) assay, compound CCOC(=O)c1c(C)n(-c2ccc(C)cc2)c2ccc(O)cc12 , recorded ENDOHDL Test 1 = 0.61

murine SR-BI (Mus musculus) assay, compound O=C1Nc2ccc([N+](=O)[O-])cc2/C1=N/NC(=O)C1C2CCCCC21 (stereo not drawn) , recorded ENDOHDL Test 1 = 0.6

murine SR-BI (Mus musculus) assay, compound O=C(Nc1cccc(NC(=O)c2ccccc2Cl)c1)c1cccc([N+](=O)[O-])c1 , recorded ENDOHDL Test 1 = 0.66

###

# target or system: murine SR-BI (Mus musculus, UniProt Q61009)
# Construct: expressed in transfected cells; host or cells: ldlA-7 (LDL receptor deficient Chinese hamster ovary cells)
# Sequence (Q61009 whole entry): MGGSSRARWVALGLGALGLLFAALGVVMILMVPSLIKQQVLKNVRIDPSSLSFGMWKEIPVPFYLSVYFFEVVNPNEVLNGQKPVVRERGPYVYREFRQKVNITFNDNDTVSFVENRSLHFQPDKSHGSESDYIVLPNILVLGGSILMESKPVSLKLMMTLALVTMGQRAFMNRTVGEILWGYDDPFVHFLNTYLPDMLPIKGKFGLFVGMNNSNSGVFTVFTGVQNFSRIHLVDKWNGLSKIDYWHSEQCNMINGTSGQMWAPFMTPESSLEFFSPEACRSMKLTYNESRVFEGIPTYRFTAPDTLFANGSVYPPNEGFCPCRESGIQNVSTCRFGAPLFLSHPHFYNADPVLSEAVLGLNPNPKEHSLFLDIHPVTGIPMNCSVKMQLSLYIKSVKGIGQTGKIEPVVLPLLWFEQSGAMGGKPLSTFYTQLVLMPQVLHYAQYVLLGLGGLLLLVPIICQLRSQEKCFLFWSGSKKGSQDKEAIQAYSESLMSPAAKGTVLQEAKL
# experiment: Rate of 125I-HDL dissociation from cells
# measurement parameters: dissociation of 125I-HDL from ldlA[mSR-BI] cells in presence of BLT; no BLT control 0.11; n=2; read-out: (B) Binding Parameters Koff (converted)
Overview of reported koff across a group of compounds:
API: value field is a number in s⁻¹; no unit string.

Worked examples follow.
>  <compound>
CCCCCCC1CCC/C1=N\NC(N)=S (centres unmarked) [MIT 9952-53]

>  <target or system>
murine SR-BI (Mus musculus, UniProt Q61009)

>  <koff (s⁻¹)>
0.001

$$$$
>  <compound>
COc1ccccc1NC(=O)Nc1ccc2ccccc2c1 [MIT 9952-29]

>  <target or system>
murine SR-BI (Mus musculus, UniProt Q61009)

>  <koff (s⁻¹)>
0.00137

$$$$
>  <compound>
c1ccc(-c2noc(-c3ccccc3)c3cccc2-3)cc1 [MIT 9952-19]

>  <target or system>
murine SR-BI (Mus musculus, UniProt Q61009)

>  <koff (s⁻¹)>
0.00133

$$$$
>  <compound>
CCCCOCCC1CCC/C1=N\NC(N)=S (centres unmarked) [MIT 9952-61]

>  <target or system>
murine SR-BI (Mus musculus, UniProt Q61009)

>  <koff (s⁻¹)>
0.00103

$$$$

The value of koff measured for the compound C/C(=N\NC(=O)c1ccccc1I)c1ccc(N)cc1 [MIT 9952-6] turned out to be 0.00132
